Catalogue of compounds with associated IC50
# assay-info: Cytotoxicity against human MCF7 cells assessed as decrease in cell viability after 24 hrs by MTT assay
# Format: functional, cell-based
# run-parameters: MCF7, 24 h

Worked cases, answers included:
Please report the recorded IC50 for `COc1cc(NS(=O)(=O)c2ccc(NC(=S)Nc3nccc4ccccc34)cc2)nc(OC)n1` .
> 200 µg/mL

Give its IC50 value. Item: `COc1cc(NS(=O)(=O)c2ccc(NC(=S)Nc3cccc4nsnc34)cc2)nc(OC)n1`
> 200 µg/mL

We now examine a further compound.
Return reported IC50; argument: `CCOc1ccc2nc(NC(=S)Nc3ccc(S(=O)(=O)Nc4cc(OC)nc(OC)n4)cc3)sc2c1`
> 200 µg/mL

src = ChEMBL document CHEMBL3875150
